TARGET ENTITY: Tyrosine-protein kinase Srms (Homo sapiens) (UniProt Q9H3Y6)
Sequence (Q9H3Y6 whole entry): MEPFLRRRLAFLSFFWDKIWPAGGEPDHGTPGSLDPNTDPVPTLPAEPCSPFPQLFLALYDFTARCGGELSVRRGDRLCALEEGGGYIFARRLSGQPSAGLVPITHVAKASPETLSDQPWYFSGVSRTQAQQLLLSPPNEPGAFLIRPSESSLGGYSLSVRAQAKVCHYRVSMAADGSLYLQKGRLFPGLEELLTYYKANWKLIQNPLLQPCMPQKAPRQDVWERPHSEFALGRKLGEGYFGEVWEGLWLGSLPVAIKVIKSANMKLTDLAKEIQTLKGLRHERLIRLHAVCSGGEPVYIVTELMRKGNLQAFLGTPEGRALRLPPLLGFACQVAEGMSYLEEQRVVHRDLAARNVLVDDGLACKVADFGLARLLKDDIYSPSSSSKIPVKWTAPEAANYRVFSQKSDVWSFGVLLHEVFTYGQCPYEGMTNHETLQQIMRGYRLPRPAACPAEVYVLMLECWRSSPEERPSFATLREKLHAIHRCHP
TEST CONTEXT: at 1 µM
Description: GSK_PKIS: SRMS mean inhibition at 1 uM [Nanosyn]
QUANTITY KIND: inhibition (%)
One number for each entry, in %.

Illustrative cases are given below, each with its answer.
# MOLECULE SMILES, RECORDED RESULT
rows = [
    ("CCN1CCC(C(=O)Nc2n[nH]c3nnc(-c4cccc(F)c4F)cc23)CC1", 2.12),
    ("CS(=O)(=O)CCNCc1ccoc1-c1ccc2ncnc(Nc3ccc(OCc4ccccc4)cc3)c2c1", -0.79),
    ("Cc1cc(O)cc(C)c1/C=C/c1cncc(C(N)=O)c1", 31.6),
]

Okay, now this molecule:
Give its inhibition value. Item: CCOc1ccc2c(-c3ccnc(Nc4cc(OC)cc(C(F)(F)F)c4)n3)cnn2n1 4.4
